method_notes: NCI Yeast Anticancer Drug Screen. Data for the mlh1 rad18 strain (AID 175)
condition_notes: S. cerevisiae mlh1 rad18 strain growth inhibition; at 50.0 µM; active compounds read high
This is part of a sample that, as a whole, favours compounds with a hit. Of some 79,000 tested, about 15% had one in any assay.

compound	growth inhibition, %
Cc1ccc(C(c2ccc(C)c(C)c2)C(O)C(O)C(O)C(O)CO)cc1C (stereo not given)	-18.4
Cc1ccc(NC(=O)OCCOc2ccccc2)cc1NC(=O)OCCOc1ccccc1	33.9
COc1ccc(C(=O)N2CCOCC2)cc1	-10.6
CC1CCC(C(C)C)C(NC(=O)c2cccnc2)C1 (stereo not given)	8.75
COc1ccc(C2Cc3cc(OC)c(OC)cc3C(c3ccccc3)N2)cc1OC (stereo not given)	30.5
CN(N=O)c1nc2c(C(N)=O)ncn2s1	24.1
c1ccc2c(c1)C1C3c4ccccc4C1C1C2C31	-2.8
COc1cc(CNc2nc3c(NC(C)=O)cc(C(F)(F)F)cc3nc2-c2ccccc2)cc(OC)c1OC	-10.3
O=S1(=O)CC(N2CCCCC2)C=C(c2ccccc2)O1 (stereo not given)	34.2
Oc1ccc(C(c2ccc(O)cc2)c2ccc(O)cc2)cc1	-18.2
CCN(CC)CC(O)Cn1cnc2c(=S)nc[nH]c21 (stereo not given)	-4.45
O=C1CC23CC(=O)CC2(C1)c1ccccc1C3=O (stereo not given)	13.7
CCNC(=S)N/N=C/c1cc(OC)ccc1O	-13.9
O=[N+]([O-])c1ccc(Nc2ccc(Cl)cc2)c2nonc12	23.4
O=c1c(O)c(-c2ccc(O)cc2O)oc2cc(O)cc(O)c12	-26.8
